Known melting point of a selection of molecules

Field: example entries. Status: answers known.
{"MOLECULE": "N#CC1(Cc2nnn[nH]2)C2CCCC1CCC2 (stereo not given)", "PROPERTY_NAME": "melting point", "RECORDED_VALUE": "189 to 191 °C"}
{"MOLECULE": "CC(C)NC(=O)c1cnc(N2CCC(n3c(=O)oc4ccccc43)CC2)c(Cl)c1", "PROPERTY_NAME": "melting point", "RECORDED_VALUE": "162 to 168 °C"}
{"MOLECULE": "O=C1c2cccc3c(Cl)ccc(c23)C(=O)N1O", "PROPERTY_NAME": "melting point", "RECORDED_VALUE": "234 to 236 °C"}
{"MOLECULE": "CC(C)(C)OC(=O)N[C@H]1CCN(c2nc3c(cc2F)c(=O)c(C(=O)O)cn3C2CC2)C1", "PROPERTY_NAME": "melting point", "RECORDED_VALUE": "247 to 249 °C"}
{"MOLECULE": "Cc1ncc2c(c1-c1nnn[nH]1)COc1ccccc1C2=O", "PROPERTY_NAME": "melting point", "RECORDED_VALUE": "180 to 182 °C"}
{"MOLECULE": "O=C1COC(C#Cc2ccccc2)(C(F)(F)F)c2cc(Cl)ccc2N1 (stereo not given)", "PROPERTY_NAME": "melting point", "RECORDED_VALUE": "190 to 191 °C"}
{"MOLECULE": "N#CC(=NO)c1cccc(Oc2ccccc2)c1", "PROPERTY_NAME": "melting point", "RECORDED_VALUE": "124 to 125 °C"}
{"MOLECULE": "Cc1ccc(-c2cn3cc(-c4cccc(COc5ccc(Cl)cc5)c4)ccc3n2)cc1", "PROPERTY_NAME": "melting point", "RECORDED_VALUE": "182 to 184 °C"}
{"MOLECULE": "COc1ccc(C(=O)NC(=O)Nc2ccc3c(c2)NC(=O)/C3=C/c2ccc(Cl)cc2)cc1", "PROPERTY_NAME": "melting point", "RECORDED_VALUE": "278 to 283 °C"}
{"MOLECULE": "O=c1c2[nH]cnc2n(CC2CC2)c(=O)n1CC1CC1", "PROPERTY_NAME": "melting point", "RECORDED_VALUE": "203 °C"}

Return the recorded melting point value; entry: Cc1cc(Oc2ccc3nc(COc4ccc(CC5SC(=O)NC5=O)cc4)n(C)c3c2)cc(C)c1NC(=S)Nc1ccc(Cl)cc1 (stereo not given)
160 to 162 °C

Return the recorded melting point value; entry: CC(C)(C)c1ccccc1N1CCN(C(=O)CC#N)CC1
163 to 164 °C

Return the recorded melting point value; entry: COc1ccc(-c2nc(O)c(-c3ccccc3)s2)cc1
218 to 221 °C

Return the recorded melting point value; entry: CC1CCN(S(=O)(=O)c2cc(C#N)ccc2Oc2cc(Cl)ccc2Cl)CC1
127 to 130 °C
